- study-target: Neuraminidase (Influenza A virus, UniProt B4URF0)
- Sequence (B4URF0 whole entry): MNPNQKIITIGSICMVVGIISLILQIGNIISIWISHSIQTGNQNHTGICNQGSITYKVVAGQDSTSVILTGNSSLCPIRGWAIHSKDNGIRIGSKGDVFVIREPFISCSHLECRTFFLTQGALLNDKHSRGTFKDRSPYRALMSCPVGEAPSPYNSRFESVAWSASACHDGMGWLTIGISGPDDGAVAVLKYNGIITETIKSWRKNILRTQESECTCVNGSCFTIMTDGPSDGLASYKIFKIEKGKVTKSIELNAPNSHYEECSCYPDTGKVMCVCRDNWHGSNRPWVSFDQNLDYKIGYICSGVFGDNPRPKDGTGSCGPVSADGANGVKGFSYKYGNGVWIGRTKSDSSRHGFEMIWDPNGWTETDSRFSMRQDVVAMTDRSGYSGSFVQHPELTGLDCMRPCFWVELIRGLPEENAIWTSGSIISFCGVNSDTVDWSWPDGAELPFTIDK
- experiment-description: Inhibition of Influenza A virus (A/Sydney/5/97(H3N2)) recombinant neuraminidase using 2'-(4- methylumbelliferyl)-alpha-D-N-acetylneuraminic acid as substrate after 1 hr by fluorescence assay
- Design: species or system Influenza A virus (A/Sydney/5/1997(H3N2))
parameter-measured: pIC50
Interpret pIC50 as the negative base-10 log of the concentration measured in mol/L.

Some compounds with known pIC50 results, for comparison:
CC(=O)N[C@H]1[C@H]([C@H](O)[C@H](O)CO)OC(C(=O)O)=C[C@@H]1NC(=S)Nc1ccc(C(F)(F)F)cc1 : 3.05
CC(=O)N[C@H]1[C@H]([C@H](O)[C@H](O)CO)OC(C(=O)O)=C[C@@H]1NC(=O)Nc1ccc(C)cc1 : 3.11
CC(=O)N[C@H]1[C@H]([C@H](O)[C@H](O)CO)OC(C(=O)O)=C[C@@H]1N1CCCC(C(=O)O)C1 (stereo not given in full) : 3.30
CC(=O)N[C@H]1[C@H]([C@H](O)[C@H](O)CO)OC(C(=O)O)=C[C@@H]1NC(=O)N[C@@H](C)C(=O)O : 3.18
CC(=O)N[C@H]1[C@H]([C@H](O)[C@H](O)CO)OC(C(=O)O)=C[C@@H]1N1CCOCC1 : 3.25

Now consider a different compound.
Find the measured pIC50: item CCCCNC(=S)N[C@H]1C=C(C(=O)O)O[C@@H]([C@H](O)[C@H](O)CO)[C@@H]1NC(C)=O , target or system Neuraminidase (Influenza A virus, UniProt B4URF0). 4.19
